Test system: Lefty1
test: Lefty1 protein binding to printed compounds – biochemical, small-molecule microarray, 635/667 nm fluorescence, primary screen (AID 1139)
assay-setup: fluorescence 635/667, higher = more signal
assay-endpoint: composite z-score
Keep it simple and answer with nothing but the number.

C=CCC(OC(C)=O)[C@@H]1[C@@H](N(Cc2ccc(-c3cccc(C(F)(F)F)c3)o2)C(=O)c2ccc(-c3ccccc3)cc2)c2cc(OCCCO)ccc2N1C(=O)c1ccc2ccccc2c1 (some centres undefined) ... 1.17
COC(=O)[C@]1(CCC(=O)OC(C)(C)C)N=C(c2ccc(OCCCO)cc2)O[C@@H]1c1ccccc1N=[N+]=[N-] ... -0.0341
O=C1C2C=CC(C(O)C3CCCCC3)N(n3cnnc3)C2C(=O)N1Cc1ccccc1 (centres undefined) ... 1.27

What value of composite z-score has been recorded for this entry: `C=CCOC(=O)[C@@H]1[C@H]2C(=O)O[C@H](c3ccccc3)[C@H](c3ccccc3)N2[C@H](c2ccc(OCCOC(=O)[C@H]3C[C@H]4C(=O)N5CCC[C@H]5C(=O)N4[C@H]3c3cccc(OCCO)c3)cc2)[C@@]12C(=O)Nc1ccc(I)cc12`
1.44

* * *

test: calcein-AM signal in unstimulated myeloma cells – cell-based, calcein-AM fluorescence, 48 h, PK04 Diversity Set, profiling panel (AID 1166);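 also: cells grown under basal conditions without added stimulus; test concentration not given here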
assay-setup: RPMI8226 myeloma viability, higher = more signal
assay-endpoint: z-score
Keep it simple and answer with nothing but the number.

Past entries and their recorded results:
O=C1C[C@]2(c3ccc([N+](=O)[O-])cc3)C(=O)N(C3CC3)c3cc(CO)ccc3[C@H]2N1C1CCCCC1 ... 0.474
COC(=O)[C@@]1(Cc2ccccc2)[C@H]2c3cc(C(=O)N4CCCC4)n(Cc4ccc(OC)c(OC)c4)c3C[C@H]2CN1C(=O)c1ccccc1 ... -1.05
COc1ccccc1CN1C(=O)c2ccccc2[C@](Cc2ccccc2I)(C(=O)NCC(C)C)[C@@H]1c1ccc(CO)cc1 ... -0.458

What value of z-score has been recorded for this entry: `COC(=O)[C@@]1(Cc2ccc(F)cc2)[C@H]2c3cc(C(=O)N(C)C)n(CCc4ccc(O)c(O)c4)c3C[C@H]2CN1C(=O)c1ccccc1`
-0.238

Also `CN(C)CCCCNC(=O)[C@H]1C[C@H]2C(=O)N3CCC[C@H]3C(=O)N2[C@H]1c1cccc(OCCO)c1` , if possible.
0.291

* * *

test: compounds binding Alexa647 anti-His antibody – biochemical, small-molecule microarray, 635 nm fluorescence, artefact control for SMM control protein annotation, primary screen (AID 1128);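 also: score merges feature fluorescence with signal-to-noise for each printed compound spot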
assay-setup: higher = more signal
# reported composite z-score; entries follow
Keep it simple and answer with nothing but the number.

Past entries and their recorded results:
O=C1C[C@@](C(=O)O)(c2ccc([N+](=O)[O-])cc2)[C@@H](c2ccc(CO)cc2)N1C1CCCCC1 ... 1.82
O=C1C2C=CC(C(O)C3CCCCC3)N(n3cnnc3)C2C(=O)N1Cc1ccccc1 (stereo not drawn) ... -0.526

Moving on to the next compound.
What value of composite z-score has been recorded for this entry: N#Cc1ccc(NN2C(C(O)C3CC=CCC3)C=CC3C(=O)N(c4ccccc4)C(=O)C32)cc1 (stereo not drawn)
0.118

* * *

test: resazurin metabolic signal in HepG2 cells – cell-based, resazurin fluorescence, 24 h, PK04 Diversity Set, profiling panel (AID 1172); also: test concentration not given here
assay-setup: HepG2 viability, higher = more signal
Label True when z-score < -0.5; otherwise False.

Here's what some known entries look like.
CN1C(=O)C2C(C1=O)C1C=C(c3ccc(CO)cc3)C2C(C2CC2)N1C (stereo not drawn) ... True
O=C1C2C=CC(C(O)c3ccc([N+](=O)[O-])cc3)N(Nc3ccccc3F)C2C(=O)N1c1ccccc1 (stereo not drawn) ... True
CC(C)N1C(=O)c2ccccc2[C@@H](C(=O)NCC(F)(F)F)[C@@H]1c1ccc(CO)cc1 ... False
CC(C)C[C@@H]1NC(=O)[C@@H]2C[C@H](C(=O)NCCCCCCNC(=O)CS)[C@H](c3cccc(OCCO)c3)N2C1=O ... True
Cc1ccc(C(C)CC(O)C2C=CC3C(=O)N(C)C(=O)C3N2Nc2ccccc2)o1 (stereo not drawn) ... False

# TODO verify z-score < -0.5 strictly for this compound: `C=CCOC(=O)[C@H]1[C@@H]2C(=O)O[C@@H](c3ccccc3)[C@@H](c3ccccc3)N2[C@@H](c2ccc(OCCOC(=O)[C@@H]3C[C@@H]4C(=O)N[C@@H](CCCCNC(C)=O)C(=O)N4[C@@H]3c3cccc(OCCO)c3)cc2)[C@]12C(=O)Nc1ccccc12`
False

Also CCCCCC1=C2CNC(Cc3ccccc3)(C(=O)OC)C=C2C(C)C1=O (stereo not drawn) , if possible.
True

Also `O=C1C=C(c2ccccc2)C(=O)C2=C1CC([C@H]1Oc3ccccc3S(=O)(=O)N3CCC[C@@H]13)=CC2` , if possible.
False

* * *

test: small molecules captured by biotinylated probe aFST – biochemical, small-molecule microarray, fluorescence 635/667, stem cell growth factor project, primary screen (AID 1086);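 also: score merges 667 nm fluorescence with signal-to-noise of each printed compound spot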
assay-setup: higher = more signal
# reported composite z-score; entries follow
Keep it simple and answer with nothing but the number.

Past entries and their recorded results:
CCCCCC1=C2CNC(CC(C)C)(C(=O)OC)C=C2C(C)C1=O (configuration not stated) ... 0.404
CCCC=C(CCC)[C@@H](NC(=O)OCC(C)C)c1ccc(C(=O)OC)cc1 ... 0.107
CN1C(=O)C2C=CC(C(O)c3ccc(-c4ccccc4)s3)N(NC(=O)OC(C)(C)C)C2C1=O (configuration not stated) ... 0.913
COc1ccc([Si](C)(C)[C@@H]2[C@@H](CC(=O)N(CCO)Cc3ccccc3)O[C@]3(C(=O)N(Cc4ccc(N5C(=O)c6cccc7cccc5c67)cc4)c4ccccc43)[C@H]2C)cc1 ... -0.0542
C=CCC(OC(C)=O)[C@@H]1[C@@H](N(Cc2cccc3ccccc23)C(=O)c2ccc(-c3ccccc3)cc2)c2cc(OCCCO)ccc2N1C(=O)Cc1ccc2ccccc2c1 (some centres not stated) ... 0.481
COCCCNC(=O)[C@@]1(Sc2ccc(C)cc2)CC(=O)N(Cc2ccccc2C(F)(F)F)[C@@H]1c1ccc(CO)cc1I ... -0.228

What value of composite z-score has been recorded for this entry: `Cc1ccc(S[C@]2(C(=O)NCc3ccccc3)CC(=O)N(Cc3ccccc3C(F)(F)F)[C@@H]2c2ccc(CO)cc2)cc1`
-0.633

* * *

# reported composite z-score; entries follow
test: probe aLefty2 binding to arrayed compounds – biochemical, biotinylated probe, 635/667 nm fluorescence, primary screen (AID 1094);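 also: score merges spot fluorescence near 667 nm with spot signal-to-noise ratio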
assay-setup: small-molecule microarray, higher = more signal
Keep it simple and answer with nothing but the number.

CCOC(=O)C[C@H]1[C@H](OC(=O)Cc2ccc3c(c2)OCO3)[C@@H](NC(=O)c2ccc3ccccc3n2)c2cc(OCCCO)ccc2N1C(=O)Cc1ccc(OC)cc1 ... 0.0071
CC1CC/C=C\[C@H]2OC34C=CCN(Cn5nnc6ccccc65)C(=O)[C@H]3N(CCCCCCO)C(=O)[C@@H]4C2C(=O)O1 (some centres not stated) ... -0.205
CCOC(=O)C1=CCC(c2cc3ccccc3[nH]2)N(CCN2CC(C(=O)OCC)=CCC2c2cc3ccccc3[nH]2)C1 (configuration not stated) ... 0.0094
CC(C)(C)N1CC=CC23O[C@@H]4C=CCOC(=O)[C@@H]4[C@H]2C(=O)N(CCO)[C@@H]3C1=O (some centres not stated) ... -0.284
COc1ccc([Si](C)(C)[C@@H]2[C@@H](CC(=O)N3CCC[C@H]3CO)O[C@]3(C(=O)N(Cc4ccc(N5CCOC5=O)cc4)c4ccccc43)[C@H]2C)cc1 ... -0.242
COC(=O)C(CC#Cc1ccc2c(c1)[C@]1(C(=O)N2)[C@H](C(=O)NC[C@H](O)c2ccccc2)[C@H]2C(=O)O[C@H](c3ccccc3)[C@H](c3ccccc3)N2[C@@H]1c1ccccc1OCCO)C(=O)OC ... -0.0598

Moving on to the next molecule.
What value of composite z-score has been recorded for this entry: `CCCCCCc1nc(Cc2cc(OC)c(OC)c(OC)c2)cc2c1[Si](C(C)C)(C(C)C)O[C@H]2c1ccccc1`
-0.176

* * *

test: changes in parasitized red cell lysis, either direction – P. falciparum Indochina, OD700, 3 h, PSAC antagonist project, primary screen (AID 1156)
assay-setup: P. falciparum-infected erythrocytes, osmotic lysis, higher = more signal, called active from +8 up or from −8 down
z-score below 0.5 gives not fulfilled; z-score at or above it gives fulfilled.

CCOC(=O)C[C@H]1[C@H](OC(=O)c2cc3ccccc3oc2=O)[C@@H](NC(=O)CC(C)C)c2cc(OCCCO)ccc2N1C(=O)Cc1ccc(OC)cc1 ... fulfilled
CC(C)(C)N1CC=CC23O[C@@H]4/C=C\CCCOC(=O)C4[C@H]2C(=O)N(CCCCCO)[C@@H]3C1=O (stereo partly specified) ... not fulfilled
Cc1ccccc1C(O)C1C=CC2C(=O)N(c3ccccc3)C(=O)C2N1Nc1ccccc1 (stereo unspecified) ... not fulfilled
O=C1C2C=CC(C(O)C3CCCCC3)N(n3cnnc3)C2C(=O)N1Cc1ccccc1 (stereo unspecified) ... not fulfilled
CC(C)N1C(=O)C[C@@](C(=O)NCCN2CCOCC2)(c2ccc([N+](=O)[O-])cc2)[C@H]1c1ccc(CO)cc1 ... fulfilled
[N-]=[N+]=NCc1ccccc1[C@@H]1OC(c2ccc(OCCCO)cc2)=N[C@]1(Cc1ccccc1N=[N+]=[N-])C(=O)NCC(O)CO (stereo partly specified) ... fulfilled
O=C(NCc1ccccc1)[C@@H]1c2ccccc2C(=O)N(Cc2ccc(OC(F)(F)F)cc2)[C@H]1c1ccc(CO)cc1 ... fulfilled
COCCOC(=O)N1C(=O)[C@@]2(c3ccccc31)[C@H](c1ccc(O)cc1)N1[C@H](c3ccccc3)[C@H](c3ccccc3)OC(=O)[C@H]1[C@@H]2C(=O)N1CCCCCCC1 ... not fulfilled

hey, is z-score for this one >= 0.5? COc1cc(C(O)C2C=CC3C(=O)N(c4ccccc4)C(=O)C3N2Nc2ccccc2F)cc(OC)c1OC (stereo unspecified)
not fulfilled

Also CC1CC/C=C\[C@H]2OC34C=CCN(c5ccc6ccccc6c5)C(=O)[C@H]3N(C(C)CO)C(=O)[C@@H]4C2C(=O)O1 (stereo partly specified) , if possible.
fulfilled

Also `COCCOC(=O)N1C(=O)[C@@]2(c3ccccc31)[C@H](C(=O)N1CCN(c3ncccn3)CC1)[C@H]1C(=O)O[C@H](c3ccccc3)[C@H](c3ccccc3)N1[C@@H]2c1ccccc1OCCO` , if possible.
not fulfilled
